Test system: HS 578T breast
Assay: NCI tumour cell line growth inhibition, 48 h
Overview of reported GI50 across a group of compounds:

See these solved cases before continuing.
COMPOUND	EXPERIMENTAL_SYSTEM	GI50
Cc1ccc(NC(=O)c2nc(S(C)=O)oc2-c2ccc(F)cc2)cc1Nc1nccc(-c2cccnc2)n1 (stereo not drawn)	HS 578T breast	2960 nM
O=C1C(Cl)=C(Nc2cccc(O)c2)C(=O)N1c1cccc(Cl)c1Cl	HS 578T breast	1710 nM
CC(C)Oc1ccc(C(=O)N[C@H](CNC(=O)CN(C)C)Cc2ccc(-c3cn4cccc([C@H](C)O)c4n3)cc2)cc1Cl	HS 578T breast	1380 nM
O=C(CN1CCN(c2ccc(Cl)cc2)CC1)N1CCN(c2nnc(-c3ccccc3)c(-c3ccccc3)n2)CC1	HS 578T breast	51600 nM

Fill in: GI50 of C[C@]12CC[C@H]3[C@@H](C[C@@H]4N=C(c5ccc(O)cc5)S[C@@]45C[C@H](O)CC[C@]35C)[C@@H]1CC[C@@H]2O is ___
1590 nM

---

Tested on: KM12 colon
Test: NCI tumour cell line growth inhibition, 48 h
Overview of reported TGI across a group of compounds:
Just the number in µM, nothing appended.

COMPOUND	NUMERIC_READOUT
COc1cc2c(cc1O)C(C)Cc1cc3c(cc1N(C)CC2)OCO3 (centres undefined)	17.8
COc1cc(C2C(C#N)=C(N)Oc3cc(O)ccc32)cc(OC)c1OC (centres undefined)	63.3
CC1(C)CC[C@]2(C(=O)O)CC[C@]3(C)C(=CC[C@@H]4[C@@]5(C)CC[C@H](OC6OC(CO)C(O)C(O)C6OC6OC(CO)C(O)C(O)C6O)C(C)(C)[C@@H]5CC[C@]43C)[C@@H]2C1 (some centres undefined)	29.4

Attention now shifts to the item below.
Fill in: TGI of O=C1C[C@H]2[C@H](c3ccc(Br)cc3)[C@H]3C(=O)c4ccccc4NC(=O)[C@@H]3[C@@]2(O)c2ccccc2N1 is ___
43.8

---

Overview of reported GI50 across a group of molecules:
Tested on: ACHN renal
Assay: NCI tumour cell line growth inhibition, 48 h

See these solved cases before continuing.
MOLECULE	EXPERIMENTAL_SYSTEM	GI50
Nc1nc2c(c3cnccc13)C(c1cccc(Cl)c1)Cc1cnccc1-2 (stereo not drawn)	ACHN renal	761 nM
C[C@@]1(N2C(=O)OC[C@@H]2c2ccccc2)C(=O)N([C@H](CC(=O)N2CCC(N3CCCCC3)CC2)C(=O)NCc2cccc(C(F)(F)F)c2)[C@@H]1/C=C/c1ccccc1	ACHN renal	2030 nM
O=C([O-])c1ccccc1Nc1ccccc1[O-].[Ni+3].[OH3+].[OH3+].[OH3+]	ACHN renal	> 100000 nM
CC(C)[C@@H]1CC[C@@H]2[C@@H]1[C@H](OC(=O)/C=C/c1ccccc1)[C@]1(C(C)C)C[C@@H](OC(=O)CO)[C@@]2(C)O1	ACHN renal	8.24 nM

Fill in: GI50 of C[C@]12CC[C@H]3[C@@H](C[C@@H]4N=C(c5ccc(O)cc5)S[C@@]45C[C@H](O)CC[C@]35C)[C@@H]1CC[C@@H]2O is ___
7550 nM

Fill in: GI50 of COc1cc2c3c(c4c5ccccc5[nH]c4c2c(OC)c1OC)C(=O)N(CCN1CCCCC1)C3=O is ___
400 nM

Fill in: GI50 of O=C1C(Cl)=C(Nc2cccc(O)c2)C(=O)N1c1cccc(Cl)c1Cl is ___
19100 nM

---

Tested on: OVCAR-8 ovarian
Test: NCI tumour cell line growth inhibition, 48 h
ENDPOINT: TGI

MOLECULE	TGI
COc1cc2c(cc1O)C(C)Cc1cc3c(cc1N(C)CC2)OCO3 (stereo unspecified)	37.5 µM
N#Cc1c2nc3ccccc3nc2n2ccc3ccccc3c12	> 100 µM
C=C1N(C)c2ccc(Cl)cc2C1(C)C	> 100 µM

Fill in: TGI of CC(O[Si](C)(C)C)C1C=CC(C)n2c(=O)n(-c3ccccc3)c(=O)n21 (stereo unspecified) is ___
> 100 µM

Fill in: TGI of CC(NC(=O)C(N)CC(=O)O)NC(=O)N1CCCC1 (stereo unspecified) is ___
> 100 µM

---

Overview of reported TGI across a group of molecules:
Tested on: COLO 205 colon
Assay: NCI tumour cell line growth inhibition, 48 h

See these solved cases before continuing.
MOLECULE	ENDPOINT	RESULT
COc1cc(C2C(C#N)=C(N)Oc3cc(O)ccc32)cc(OC)c1OC (stereo unspecified)	TGI	4.1 µM
CC(C)=CCC[C@H](C)[C@H]1CC[C@@H](C)c2cc(O)c(C)cc21	TGI	34.3 µM
CC(=O)Nc1sc2c(c1-c1nc3ccccc3s1)CNC2	TGI	9.73 µM
CC(C)(C)NC1C2CCC(C)(C1O)C2(C)C (stereo unspecified)	TGI	> 100 µM
Cc1ccc(S(=O)(=O)n2cc(-c3nnnn3-c3ccc(Cl)cc3)c(=O)c3ccccc32)cc1	TGI	> 100 µM

Fill in: TGI of S=C1SC(c2ccc(Cl)cc2)(c2ccc(Cl)cc2)c2ccccc21 is ___
> 100 µM

Fill in: TGI of COc1ccc(C#CCC(OC2OC(CO)C(O)C(O)C2O)C(O)c2ccc(OC)c(OC)c2)cc1OC (stereo unspecified) is ___
> 100 µM

Fill in: TGI of CP(C)(=S)P(C)(C)=S is ___
> 100 µM

Fill in: TGI of O=C(/C=C/c1cccnc1)c1ccccc1O is ___
30.1 µM

Fill in: TGI of N=c1ccn2c(n1)O[C@@H]1[C@@H](O)[C@H](CO)O[C@@H]12 is ___
> 100 µM

Fill in: TGI of CCNc1ncnc2n[nH]nc12 is ___
> 100 µM

---

System: SF-268 CNS
Test: NCI tumour cell line growth inhibition, 48 h; in the data active = GI50 below about 0.43 µM; inactive = the rest
// one of active, inactive, no free text

COMPOUND	CATEGORY_LABEL
Cc1ccc(S(=O)(=O)n2cc(-c3nnnn3-c3ccc(Cl)cc3)c(=O)c3ccccc32)cc1	inactive

Each compound tested received a call. Report the one for CSc1nc2c(c(=O)[nH]1)C(c1ccc(Cl)cc1)C1=C(N2)/C(=C/c2ccc(Cl)cc2)CNC1 (configuration not stated) .
inactive

Each compound tested received a call. Report the one for CC(C)Oc1ccc(C(=O)N[C@H](CNC(=O)CN(C)C)Cc2ccc(-c3cn4cccc([C@H](C)O)c4n3)cc2)cc1Cl .
active

Each compound tested received a call. Report the one for O=c1cccc(C#CC#C/C=C/CO)o1 .
inactive

Each compound tested received a call. Report the one for O=C(CN1CCN(c2ccc(Cl)cc2)CC1)N1CCN(c2nnc(-c3ccccc3)c(-c3ccccc3)n2)CC1 .
inactive

Each compound tested received a call. Report the one for C[C@]12CC[C@H]3[C@@H](C[C@@H]4N=C(c5ccc(O)cc5)S[C@@]45C[C@H](O)CC[C@]35C)[C@@H]1CC[C@@H]2O .
inactive

---

System: SW-620 colon
Assay: NCI tumour cell line growth inhibition, 48 h
Overview of reported TGI across a group of molecules:

See these solved cases before continuing.
MOLECULE	RESULT
N#CC(c1cc(Cl)ncn1)c1nc2ccccc2s1 (stereo not given)	22 µM
CC([O-])C(=O)[O-].NCC1CCC1CN.[Pt+4] (stereo not given)	> 10 µM

Fill in: TGI of COc1ccc([C@@H]2CC(=O)NCCCCNCCCN2)cc1 is ___
> 100 µM

Fill in: TGI of COc1cc2c(cc1OC)C(Cc1c3ccccc3cc3ccccc13)N(C)CC2 (stereo not given) is ___
> 71.5 µM

Fill in: TGI of Cc1ccc(C2=C(c3ccccc3)C(O)(c3ccc(C)cc3)C(c3ccccc3)=C2c2ccc(C)cc2)cc1 is ___
> 100 µM

Fill in: TGI of ClC[Si]12OCCN(CCO1)CCO2 is ___
> 100 µM

---

Tested on: HL-60(TB) leukemia
Assay: NCI tumour cell line growth inhibition, 48 h
ENDPOINT: TGI

COMPOUND	TGI
O=C(c1ccccc1)c1c(CNCc2ccccc2)n(C(=O)c2ccccc2)c2ccccc12	98.7 µM

Fill in: TGI of CCN(CC)C1=Nc2ccccc2-n2c(C)cnc2C1 is ___
> 100 µM

---

Overview of reported TGI across a group of molecules:
Test system: NCI-H522 lung
Assay: NCI tumour cell line growth inhibition, 48 h
Just the number in µM, nothing appended.

MOLECULE	U	TGI
Oc1cc2ccccc2cc1-c1n[nH]c(=S)n1-c1ccc(Cl)cc1	µM	35.2

Fill in: TGI of Cn1c(=S)sc2nc3ccccc3n2c1=S is ___
15.1

Fill in: TGI of O=C(c1ccc2c3c(ccc(C(=O)C(F)(F)F)c13)CC2)C(F)(F)F is ___
98.9

Fill in: TGI of CCN1CCN(C(=O)[C@]23CCC(C)(C)C[C@@H]2C2=CC[C@@H]4[C@@]5(C)C/C(=C/c6cccnc6)C(=O)C(C)(C)[C@@H]5CC[C@@]4(C)[C@]2(C)CC3)CC1 is ___
3.75

Fill in: TGI of COc1ccc(-c2nocc2-c2cc(OC)c(OC)c(OC)c2)cc1 is ___
0.499

Fill in: TGI of CN(C)CCC1(C2=CCCC2)CC/C(=C\c2ccccc2)C1=O (stereo not given) is ___
27.4

Fill in: TGI of CC1(C)CC[C@]2(C(=O)O)CC[C@]3(C)C(=CC[C@@H]4[C@@]5(C)CC[C@H](OC6OC(CO)C(O)C(O)C6OC6OC(CO)C(O)C(O)C6O)C(C)(C)[C@@H]5CC[C@]43C)[C@@H]2C1 (stereo not given in full) is ___
38

Fill in: TGI of O=C1C(Cl)=C(Nc2cccc(O)c2)C(=O)N1c1cccc(Cl)c1Cl is ___
27

Fill in: TGI of Cc1ccc(C)c(NC(=O)C(Cc2c[nH]c3ccccc23)NC(=O)OCc2ccccc2)c1 (stereo not given) is ___
69.1

Fill in: TGI of CCN(CC)c1nc(N(C)C)c2cc(OC)ccc2n1 is ___
66.9

Fill in: TGI of O=C(Nc1ccc(Br)cc1F)c1cc(Br)ccc1O is ___
5.38

Fill in: TGI of COc1ccc(/C(C)=N/NC(N)=S)c(OC)c1 is ___
62.3

Fill in: TGI of Cc1cc(NCCCCCCNc2cc(C)nc3ccc(Cl)cc23)c2cc(Cl)ccc2n1 is ___
30.7

Fill in: TGI of CC(C)Oc1ccc(C(=O)N[C@H](CNC(=O)CN(C)C)Cc2ccc(-c3cn4cccc([C@H](C)O)c4n3)cc2)cc1Cl is ___
0.0698

Fill in: TGI of CC[C@]12CCCN3CC[C@]4(C(=C(C(=O)OC)C1)Nc1ccccc14)[C@@H]32 is ___
30.3

Fill in: TGI of C/C(=N/N)c1ccc2[nH]c3c(C)cc([N+](=O)[O-])c(C)c3c2c1 is ___
36.7

Fill in: TGI of Cc1cc(C#N)c(Nc2c(C)cccc2[N+](=O)[O-])s1 is ___
73.6
